This collection of values is drawn from patent US20110112308A1.

assay: Stability of mixtures with excipients; format: physicochemical; details: Mixture 5: 99% Mannitol + 1% BHT/BHA; 50° C./75% r.h., 2 weeks
Test Readout: % DS (drug substance) (% area)

{"Molecule": "Cc1[nH]c2ccccc2c1CCNCc1ccc(/C=C/C(=O)NO)cc1.O=C(O)/C=C\\C(=O)O [Maleate]", "Unit Spec": "% area", "% DS (drug substance)": 99.7}
{"Molecule": "CS(=O)(=O)O.Cc1[nH]c2ccccc2c1CCNCc1ccc(/C=C/C(=O)NO)cc1 [Mesylate]", "Unit Spec": "% area", "% DS (drug substance)": 99.2}
{"Molecule": "Cc1[nH]c2ccccc2c1CCNCc1ccc(/C=C/C(=O)NO)cc1.Cl [HCl]", "Unit Spec": "% area", "% DS (drug substance)": 99.5}
{"Molecule": "Cc1[nH]c2ccccc2c1CCNCc1ccc(/C=C/C(=O)NO)cc1 [Free base]", "Unit Spec": "% area", "% DS (drug substance)": 99.2}
{"Molecule": "CC(O)C(=O)O.Cc1[nH]c2ccccc2c1CCNCc1ccc(/C=C/C(=O)NO)cc1.O (racemic) [Monohydrate DL-lactate salt]", "Unit Spec": "% area", "% DS (drug substance)": 99.5}
